// EC50 lookup, one value per entry
tgt: GTPase KRas [1-37] (Homo sapiens)
Construct: 1-37
Sequence (G3V5T7 whole entry): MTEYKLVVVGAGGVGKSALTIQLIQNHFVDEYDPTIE
procedureSummary: Ras wild-type GTP-binding inhibitors, SAR follow-up, biochemical, pyrazoline analogs, multiplex bead flow cytometry (AID 2047)
conditionNotes: inactive by the depositor's call
Answer with a number only, understood to be in nM.

Reference set (4 entries):
>  <molecule>
COc1ccc(C2CC(c3ccc(F)cc3)=NN2c2ccc(S(N)(=O)=O)cc2)cc1 (configuration not stated)

>  <scaleUnit>
nM

>  <EC50>
28

$$$$
>  <molecule>
COc1ccc(C2=NN(c3ccccc3)C(c3ccccc3C(F)(F)F)C2)cc1 (configuration not stated)

>  <scaleUnit>
nM

>  <EC50>
17700

$$$$
>  <molecule>
COc1ccc(C2=NN(c3ccccc3F)C(c3ccc(F)cc3)C2)cc1 (configuration not stated)

>  <scaleUnit>
nM

>  <EC50>
13500

$$$$
>  <molecule>
CN(C)c1ccc(C2CC(c3ccccc3)=NN2c2ccccc2)cc1 (configuration not stated)

>  <scaleUnit>
nM

>  <EC50>
49

$$$$

molecule NS(=O)(=O)c1ccc(N2N=C(c3ccc(Cl)cc3)CC2c2ccccc2)cc1 (configuration not stated) , EC50 observed: 96

molecule COc1ccc(C2CC(c3ccc(Cl)cc3)=NN2c2ccccc2)cc1OC (configuration not stated) , EC50 observed: 79

molecule COc1ccc(C2CC(c3ccccc3)=NN2c2ccc(Cl)c(C(=O)O)c2)cc1 (configuration not stated) , EC50 observed: 1030
